Biological target: Neuronal acetylcholine receptor; alpha4/beta2 (Homo sapiens, UniProt P17787+P43681)
Sequence (P17787 whole entry): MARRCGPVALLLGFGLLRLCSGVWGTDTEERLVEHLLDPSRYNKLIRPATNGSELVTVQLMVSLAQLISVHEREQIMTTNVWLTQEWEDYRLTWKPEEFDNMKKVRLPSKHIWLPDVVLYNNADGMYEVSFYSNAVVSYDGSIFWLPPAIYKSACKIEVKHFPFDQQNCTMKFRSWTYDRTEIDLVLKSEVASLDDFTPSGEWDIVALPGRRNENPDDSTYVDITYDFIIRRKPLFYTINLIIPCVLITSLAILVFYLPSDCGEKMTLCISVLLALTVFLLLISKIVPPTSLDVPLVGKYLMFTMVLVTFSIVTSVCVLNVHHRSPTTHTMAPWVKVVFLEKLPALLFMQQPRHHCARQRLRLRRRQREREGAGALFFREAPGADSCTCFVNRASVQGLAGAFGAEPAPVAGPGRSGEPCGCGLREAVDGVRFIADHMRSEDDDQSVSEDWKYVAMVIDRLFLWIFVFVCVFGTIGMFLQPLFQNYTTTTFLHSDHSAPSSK
Sequence (P43681 whole entry): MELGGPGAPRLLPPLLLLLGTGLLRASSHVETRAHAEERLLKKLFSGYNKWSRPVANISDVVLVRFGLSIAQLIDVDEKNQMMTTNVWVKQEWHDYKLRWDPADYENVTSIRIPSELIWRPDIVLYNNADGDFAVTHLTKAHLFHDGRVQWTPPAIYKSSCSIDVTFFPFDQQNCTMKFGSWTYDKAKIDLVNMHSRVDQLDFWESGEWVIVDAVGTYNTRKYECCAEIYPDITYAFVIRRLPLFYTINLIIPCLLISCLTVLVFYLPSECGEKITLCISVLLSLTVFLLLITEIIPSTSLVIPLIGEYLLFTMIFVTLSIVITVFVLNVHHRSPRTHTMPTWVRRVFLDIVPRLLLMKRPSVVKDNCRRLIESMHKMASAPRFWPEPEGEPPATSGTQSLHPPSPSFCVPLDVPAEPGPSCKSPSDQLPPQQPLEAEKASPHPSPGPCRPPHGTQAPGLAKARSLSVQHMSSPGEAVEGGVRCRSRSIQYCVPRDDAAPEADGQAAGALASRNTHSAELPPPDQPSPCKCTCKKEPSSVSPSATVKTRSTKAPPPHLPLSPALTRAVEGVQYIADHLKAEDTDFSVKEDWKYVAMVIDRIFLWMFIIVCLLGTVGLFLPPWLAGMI
Assay: Inhibition of cation efflux in human nAChR alpha4-beta2 expressing K177 cells
reported.endpoint: pIC50
Remember the convention: pIC50 equals -log10 of concentration in molar.

* CCCCc1cncc(OC[C@@H]2CCCN2C)c1 | 6.19

Would you kindly look at the next entry?
Provide measured pIC50 value, entry: CCCc1cncc(OC[C@@H]2CCCN2C)c1
5.62

---

Target: Neuronal acetylcholine receptor; alpha4/beta2 (Rattus norvegicus, UniProt P09483+P12390)
Sequence (P09483 whole entry): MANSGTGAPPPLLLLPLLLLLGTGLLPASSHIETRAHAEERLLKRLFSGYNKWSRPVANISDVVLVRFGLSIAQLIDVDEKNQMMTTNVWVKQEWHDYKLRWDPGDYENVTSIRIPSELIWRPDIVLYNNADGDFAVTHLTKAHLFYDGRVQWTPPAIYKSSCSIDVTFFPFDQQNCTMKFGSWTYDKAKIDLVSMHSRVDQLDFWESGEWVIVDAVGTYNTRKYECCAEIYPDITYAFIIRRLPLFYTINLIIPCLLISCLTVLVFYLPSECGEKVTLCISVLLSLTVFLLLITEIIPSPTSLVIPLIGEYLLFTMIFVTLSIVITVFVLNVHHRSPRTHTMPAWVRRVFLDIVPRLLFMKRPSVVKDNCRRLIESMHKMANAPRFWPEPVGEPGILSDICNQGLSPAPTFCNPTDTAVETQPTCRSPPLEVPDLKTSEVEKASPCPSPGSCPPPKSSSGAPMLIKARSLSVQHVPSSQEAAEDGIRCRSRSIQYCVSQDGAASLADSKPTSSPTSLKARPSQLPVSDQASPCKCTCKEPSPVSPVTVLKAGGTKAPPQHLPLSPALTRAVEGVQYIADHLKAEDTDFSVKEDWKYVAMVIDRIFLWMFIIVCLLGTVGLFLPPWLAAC
Sequence (P12390 whole entry): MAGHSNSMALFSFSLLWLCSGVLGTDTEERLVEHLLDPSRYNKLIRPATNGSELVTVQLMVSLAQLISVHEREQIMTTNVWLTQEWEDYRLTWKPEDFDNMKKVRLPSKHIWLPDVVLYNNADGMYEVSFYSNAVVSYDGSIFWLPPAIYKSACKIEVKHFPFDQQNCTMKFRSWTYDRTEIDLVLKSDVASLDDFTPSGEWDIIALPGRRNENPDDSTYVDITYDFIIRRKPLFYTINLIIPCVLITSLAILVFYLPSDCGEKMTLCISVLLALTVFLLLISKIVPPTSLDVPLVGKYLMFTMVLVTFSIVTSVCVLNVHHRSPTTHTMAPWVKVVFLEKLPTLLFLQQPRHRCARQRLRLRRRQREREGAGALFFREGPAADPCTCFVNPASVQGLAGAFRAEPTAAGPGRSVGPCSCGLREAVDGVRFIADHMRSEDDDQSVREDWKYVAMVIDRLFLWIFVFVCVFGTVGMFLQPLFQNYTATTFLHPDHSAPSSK
Assay: Binding affinity towards nAChR (alpha4-beta2) by the displacement of [3H](-)-cytisine in whole rat brain membranes.
Assay type: cell membranes
pKi: −log10 of the molar value.
Hi, to clarify the labels: MET covers pKi from 9 upward, NOT MET covers anything below 9.

• CCNc1cncc(OC[C@@H]2CCCN2C)c1 = NOT MET
• Cc1ccncc1OC[C@@H]1CCCN1C = NOT MET
• CN1CCC[C@H]1COc1ccc(CO)nc1 = NOT MET
• CN1CCC[C@H]1COc1ccc(Br)nc1 = NOT MET
• CN1CCC[C@H]1COc1cc(Br)c[n+]([O-])c1 = NOT MET

For this molecule, is measured pKi 9 or higher? CN1CCC[C@H]1COc1cccnc1
MET

For this molecule, is measured pKi 9 or higher? CCCCc1cncc(OC[C@@H]2CCCN2C)c1
MET

---

molecules and their reported pKi
Molecular target: Neuronal acetylcholine receptor; alpha4/beta2 (Rattus norvegicus, UniProt P09483+P12390)
Assay: Binding affinity towards nAChR (alpha4-beta2) by the displacement of [3H](-)-cytisine in whole rat brain membranes.
Remember the convention: pKi equals -log10 of concentration in molar.

Please review the entries below; each comes with its answer.
- CN1CCC[C@H]1COc1cncc(F)c1: 9.16
- CN1CCC[C@H]1COc1ccc(Cl)nc1: 9.19
- CN1CCC[C@H]1COc1cncc(Cl)c1: 9.22
- CN1CCC[C@H]1COc1cncc(N)c1: 9.20

Provide measured pKi value, entry: CCCCCCc1cncc(OC[C@@H]2CCCN2C)c1
9.49

Provide measured pKi value, entry: CN1CCC[C@H]1COc1cnccc1Br
7.55

Provide measured pKi value, entry: Cc1ccc(OC[C@@H]2CCCN2C)cn1
8.90

Provide measured pKi value, entry: CCCc1cncc(OC[C@@H]2CCCN2C)c1
9.92

Provide measured pKi value, entry: CCN(CC)C(=O)c1ccncc1OC[C@@H]1CCCN1C
5.55

---

Biological target: Neuronal acetylcholine receptor; alpha4/beta2 (Rattus norvegicus, UniProt P09483+P12390)
Assay: Binding affinity towards nAChR (alpha4-beta2) by the displacement of [3H](-)-cytisine in whole rat brain membranes.
molecules and their reported pKi
Remember the convention: pKi equals -log10 of concentration in molar.

• CC(C)Cc1cncc(OC[C@@H]2CCCN2C)c1 = 9.68
• CN1CCC[C@H]1COc1cncc([N+](=O)[O-])c1 = 8.33
• CN1CCC[C@H]1COc1cccnc1[N+](=O)[O-] = 5.05
• CSc1ncccc1OC[C@@H]1CCCN1C = 6.25
• Cc1cncc(OC[C@@H]2CCCN2C)c1 = 9.32

Provide measured pKi value, entry: CN1CCC[C@H]1COc1cncc(Br)c1
9.57

Provide measured pKi value, entry: CN1CCC[C@H]1COc1cncc(C(F)(F)F)c1
8.74

Provide measured pKi value, entry: CN1CCC[C@H]1COc1cccnc1Br
6.35

Provide measured pKi value, entry: Cc1ncccc1OC[C@@H]1CCCN1C
7.64

Provide measured pKi value, entry: CN1CCC[C@H]1COc1cccnc1I
6.22

Provide measured pKi value, entry: CN1CCC[C@H]1COc1ccc(F)nc1
8.59

Provide measured pKi value, entry: CCc1cncc(OC[C@@H]2CCCN2C)c1
9.49

All figures here come from ChEMBL document CHEMBL1130733.
